# Experimental Details: antimalarial activity against Dd2 strain (AID 2302);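 note: 0% = DMSO untreated growth and 100% = chloroquine plus artemisinin killed control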
# Settings: P. falciparum Dd2 in RBCs, LDH growth readout, 72 h; at 2 µM
The source made the active and inactive calls.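 Rule for the calls: active = growth inhibition above 50% at the single 2 µM test dose, taken to imply half-maximal potency below 2 µM; inactive = the rest.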
Log the outcome using a class from true (active), false (inactive)

Would you please look over these solved cases?
Prompt: Give the logged outcome of this assay for the following compound: CCOc1ccc(NC(=O)c2ccc(NCCCN3CC(C)CC(C)C3)c([N+](=O)[O-])c2)cc1 (centres undefined)
Completion: true

Prompt: Give the logged outcome of this assay for the following compound: `C=CCOc1ccc2ccccc2c1CNCCCCCCNCc1c(OCC=C)ccc2ccccc12`
Completion: true

Prompt: Give the logged outcome of this assay for the following compound: `NC(N)=NCC=C(c1ccccc1)c1ccccc1`
Completion: true

Prompt: Give the logged outcome of this assay for the following compound: `COc1ccc2nccc([C@@H](O)CN3CCC(NCc4ccc5c(c4)NC(=O)CO5)CC3)c2c1`
Completion: false

Could you now consider this next compound?
Prompt: Give the logged outcome of this assay for the following compound: `CN=C(NC)c1cccc(NC(=O)C=Cc2ccc(C=CC(=O)Nc3cccc(C(=NC)NC)c3)cc2)c1`
Completion: true

###

Property: inhibition; scope: individual compounds
# Study System: L-lactate dehydrogenase (Plasmodium falciparum (isolate CDC / Honduras)) (UniProt Q27743)
# Sequence (Q27743 whole entry, looked up): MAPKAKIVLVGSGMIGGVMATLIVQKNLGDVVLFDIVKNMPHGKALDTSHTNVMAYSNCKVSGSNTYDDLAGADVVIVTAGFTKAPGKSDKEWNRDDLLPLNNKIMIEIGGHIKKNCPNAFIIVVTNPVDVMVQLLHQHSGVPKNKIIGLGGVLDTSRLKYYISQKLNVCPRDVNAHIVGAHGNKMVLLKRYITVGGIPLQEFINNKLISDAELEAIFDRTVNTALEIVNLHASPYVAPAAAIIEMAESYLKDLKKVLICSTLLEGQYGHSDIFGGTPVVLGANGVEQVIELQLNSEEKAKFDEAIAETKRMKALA
# Experimental Details: PfLDH activity inhibition – cell lysate, 3D7 strain, counter-screen for P. falciparum growth inhibition project (AID 2304);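 note: 0% = vehicle and 100% = reference inhibitor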
# Settings: P. falciparum 3D7 crude extract, LDH APAD/NBT absorbance; at 2 µM; stronger effect = higher value
Give just the numeric value; % need not be written.

Prompt: I am curious: what inhibition value has been reported for `Oc1ccc(CCNCCCCNCCc2ccc(Cl)cc2)cc1O` ?
Completion: -1

Prompt: I am curious: what inhibition value has been reported for CCCc1cc(OC)c(CC2c3cccc(O)c3CCN2C)cc1OC (centres undefined) ?
Completion: 0

Prompt: I am curious: what inhibition value has been reported for `CCOc1cc(C)ccc1C1CCN(CCCCNC(=O)c2ccc(-c3ccc(C(F)(F)F)cn3)cc2)CC1` ?
Completion: 5

Prompt: I am curious: what inhibition value has been reported for `CCOc1ccc(-c2nonc2NC(=O)c2cccs2)cc1OCC` ?
Completion: 4

Prompt: I am curious: what inhibition value has been reported for `CO/C(=C\C=C\c1cc2cc(Cl)c(Cl)cc2[nH]1)C(=O)NCCCNC12CC3CC(CC(C3)C1)C2` ?
Completion: -2

More entries:
Prompt: I am curious: what inhibition value has been reported for `CC(C)CCN=C(N)c1ccc(OCCCCCOc2ccc(C(N)=NCCC(C)C)cc2)cc1` ?
Completion: 5

Prompt: I am curious: what inhibition value has been reported for CCCCCN1CCCC(NS(=O)(=O)c2cccc(C(=O)Nc3cccc(C(F)(F)F)c3)c2)C1 (centres undefined) ?
Completion: -2

Prompt: I am curious: what inhibition value has been reported for `CC(C)c1cc2c(ccc3nc(N)nc(N)c32)o1` ?
Completion: 3

Prompt: I am curious: what inhibition value has been reported for `CCNc1cc(C)nc(Nc2ccc(NC(=O)c3ccc(OC)c(OC)c3)cc2)n1` ?
Completion: 0

Prompt: I am curious: what inhibition value has been reported for `Cn1cnc2c(SCc3ccc(OCc4ccccc4)cc3)ncnc21` ?
Completion: -6

Prompt: I am curious: what inhibition value has been reported for NC1=NC(c2ccccc2)(c2ccccn2)C(=O)N1CCCc1ccccc1 (centres undefined) ?
Completion: -2

Prompt: I am curious: what inhibition value has been reported for `O=C(OCc1ccccn1)c1nc2ccccc2[nH]1` ?
Completion: -2

Prompt: I am curious: what inhibition value has been reported for O=S(=O)(/C=C/c1ccccc1)N(Cc1ccc(-c2ccc(CNCCc3ccccn3)cc2)cc1)CC1CCCCN1 (centres undefined) ?
Completion: -4

Prompt: I am curious: what inhibition value has been reported for `CCCCN1CCN(CCCNc2c3ccccc3nc3ccccc23)CC1` ?
Completion: -7

Prompt: I am curious: what inhibition value has been reported for `CCCc1cnc2nc(N)nc(N)c2c1C` ?
Completion: -3

Prompt: I am curious: what inhibition value has been reported for `OCC1CCN(Cc2cccc(C#Cc3cc4ncnc(Nc5ccc(OCc6cccc(F)c6)c(Cl)c5)c4s3)n2)CC1` ?
Completion: 1

Prompt: I am curious: what inhibition value has been reported for COc1ccc(-c2cc(C(=O)N[C@@H](CC3CCCCC3)C(=O)NC3CCCc4ccccc43)ccc2O)cc1 (some centres undefined) ?
Completion: -1

Prompt: I am curious: what inhibition value has been reported for `Cc1cccc2[nH]c(-c3ccc(-c4ccc(CN5CCN(C6CCN(C)CC6)CC5)cc4)s3)nc12` ?
Completion: -4

Prompt: I am curious: what inhibition value has been reported for `c1ccc2[nH]c(-c3ccc(-c4ccc(CN5CCN(c6ccncc6)CC5)cc4)cc3)nc2c1` ?
Completion: -3
